Listed molecules paired with reported Human Plasma Anticoagulation 2× Clotting time PT
Test system: Human plasma
Measurement protocol: Human plasma anticoagulation, prothrombin time (PT)
Type: biochemical
Condition parameters: concentration required to double the PT, linear extrapolation

// worked examples, Human Plasma Anticoagulation 2× Clotting time PT included
INSERT INTO assay_data (molecule, test_result) VALUES
  ('O=C(O)CN[C@H](CC1CCCCC1)C(=O)N1CCC[C@H]1C(=O)NCC1=CCNCC1 [Example 58]', '11,400 ng/mL'),
  ('O=C(O)CN[C@H](CC1CCCCC1)C(=O)N1CCC[C@H]1C(=O)NCCCC1=CCNCC1 [Example 60]', '77,700 ng/mL'),
  ('CCS(=O)(=O)N[C@H](Cc1ccccc1)C(=O)N1CCC[C@H]1C(=O)NCCc1ccc(C(=N)N)cc1 [Example 26]', '750 ng/mL'),
  ('CCS(=O)(=O)N[C@H](Cc1ccccc1)C(=O)N1[C@H](C(=O)NCc2ccc(C(=N)N)cc2)C[C@@H]2CCCC[C@@H]21 (relative stereo) [Example 45]', '330 ng/mL'),
  ('N=C(N)c1ccc(CNC(=O)[C@@H]2CCCN2C(=O)[C@@H](CC2CCCCC2)NCC(=O)O)nn1 [Example 69]', '220 ng/mL');

Using the record for N=C(N)c1ccc(CNC(=O)CN(CCc2ccccc2)C(=O)CNCC(=O)O)cc1 [Example 89] , report its Human Plasma Anticoagulation 2× Clotting time PT.
37,000 ng/mL

# get_value(readout='Human Plasma Anticoagulation 2× Clotting time PT', item= N=C(N)c1ccc(CCNC(=O)[C@@H]2CCCN2C(=O)[C@@H]2NCC[C@@H]3CCCC[C@@H]32)cc1 [Example 28] )
8,300 ng/mL

Human Plasma Anticoagulation 2× Clotting time PT for CCS(=O)(=O)N[C@H](Cc1ccccc1)C(=O)N1CCC[C@H]1C(=O)NCc1ccc(NC(=N)N)cc1 [Example 34] ?
5,500 ng/mL

Entry under review: CCS(=O)(=O)N[C@H](Cc1ccccc1)C(=O)N1CCC[C@H]1C(=O)NCCc1cccc(NC(=N)N)c1 [Example 37] . Reported Human Plasma Anticoagulation 2× Clotting time PT?
> 9,000 ng/mL

Endpoint output: Human Plasma Anticoagulation 2× Clotting time PT of CCS(=O)(=O)N[C@H](Cc1ccccc1)C(=O)N1CCC[C@H]1C(=O)NCCCc1ccc(C(=N)N)cc1 [Example 30] . Value?
14,400 ng/mL

I have this molecule here, N=C(N)Nc1cccc(CNC(=O)[C@@H]2CCCN2C(=O)[C@@H]2NCC[C@@H]3CCCC[C@@H]32)c1 [Example 40] , and I need its recorded Human Plasma Anticoagulation 2× Clotting time PT.
> 91,000 ng/mL

Please give the measured Human Plasma Anticoagulation 2× Clotting time PT for this molecule: CCS(=O)(=O)N[C@H](CC1CCCCC1)C(=O)N1CCC[C@H]1C(=O)NCc1ccc(N)cc1F [Example 82]
3,000 ng/mL
